- Test details: label from the status in PepcDB records

Chain	protein production
MAIQVKASLRKNPQDKKAAGKYYAQVVLAPEMTQRQIIDQIADRCTVTGSDVKAVLDALMTVIKRNLANGSPIRLGDLGSFRPSVSGIGSENVDKFTASNVKKARVIYVPSAEIKEAVAMYAFSKVGATAEGGNTEKPGGGDIDNPGGGDEEAPDPTVLEHHHHHH	not failed
MVQLSLSQVHQDQIYRHGERCYPEECCGLLLGKILIGENGHRHWQVVEVQPTENCWGDVEEFQQNNHQGNKLHYFAIDPKVLLSAQKDCRQKGLSIIGIFHSHPHGQPIPSEFDRAIAWPEYIYLIASGLEHHHHHH	failed
AIAAEMKTYSHRTMPSACTLVMCSSVESGLPGRDGRDGREGPRGEKGDPGLPGAAGQAGMPGQAGPVGPKGDNGSVGEPGPKGDTGPS	failed
MYVTRRLSEYQKKPSELKLLPPEGPNSGIMVIQDEESQATCCFGSCYEGRLKGLPFPQNVKLNAAYTSGGGEHQTTHLTPVVFIPVLDQPLSSNLYYVLQRRGKHTGKASASATEEERVSSCFCFSYIPDAKPQEADPYDIYQQFEIHQRRSSSRYYSATSVASDGVPPNYLKRKDWWVSYSTSHDFGLRDDAKGINTKLRLDSELTSLGKSIEIGKWYVPFIFVMEGDVKDQMNKSTFYSVTLQQRWEEVFFCENIGNEHFEVVVDVDVETESVKLEGQETNLREDSGDGVVWFSVLRDEKDDKKIGLGSVVVERMKWEEERFGWLNEAGERSNIKRSERFEGGSSHWKSYRCYVLIESFELTRMDGSLVLTYEFRHVDKLKSKWD	failed
MSKKIILITGASSGFGRLTAEALWSRPPGIRLDARHCRPQRVQCSPALPGTMTLTCAPWSSTSSRRSVDRAIDQIIGEDGRIDVLIHNAPHGVRTRRSIHARAVRRALRYQCAPNASTGRRCRTCAGKSMGFSWISSSSSAGGTPPYLAPYFAAKAHGCHRCAVRTAVALGHRDVDHRPVPSRAAPITSPIPAYRTTTPAAEYEAGPNAGLGEEIKKAFAAIVAGRRCVTGCRCHCSGCGHRVRQARSGCTSTRPKTAPMWDSAFWTGRAEMLHRVGLSDLLKPRALA	not failed
MKQLMLYCRSGFEKECAGEIQDKATQLEVYGFPRVKKNSGYVVFECYQDGDAEKLVKGLDFSSLIFARQMFAVAAEFEALPSEDRISPILAELSEFESFPRCGDLRIETPDTNEAKELLKFCRKFTVPMRQALRGKGLMWNKDNAKKPVLHICFVAPGHCYVGYSLPGNNSQFFMGIPRLKFPADAPSRSTLKLEEAFHVFIPRDEWDERLAPGMWGVDLGACPGGWTYQLVKRSMFVHCVDNGMMADSLMETGQIKHHMVDGFKFEPDRKNVTWIVCDMVEKPARVAHLMGQWLLKGWAKEAIFNLKLPMKGRYDEVLQDLENLKMFLIENKVKFKLQAKHLYHDREEITIHIQCLSNISPH	failed

###

- Test details: label from the status in PepcDB records

Chain	protein production
MLKLSCNVTDHIHNLFSNSRRIFVPVHRQTRPISCFQLKKEPLRAILSADHGNSSVRVADTVSGTSPADRLRFGRLMEDGFSYKEKFIVRSYEVGINKTATIETIANLLQEVACNHVQNVGFSTDGFATTLTMRKLHLIWVTARMHIEIYKYPAWSDVVEIETWCQSEGRIGTRRDWILKDCATGEVIGRATSKWVMMNQDTRRLQRVTDEVRDEYLVFCPPEPRLAFPEENNSSLKKIPKLEDPAQYSMLGLKPRRADLDMNQHVNNVTYIGWVLESIPQEIIDTHELKVITLDYRRECQQDDIVDSLTTSETPNEVVSKLTGTNGSTTSSKREHNESHFLHILRLSENGQEINRGRTQWRKKSSR	failed
MTFNKKEKLSITALLIILYLIPAGLEWLEFDSENLHVIAISLPIWLAFFYLGPFWLFYWTQQNKHVARLHVVAQGVLYVLMMFAGANIVSRLHSMAFPQYQFPIKEQGLSAFLWGVFIFSMTHMYLLYQRFVQEQRLRKEAQLADLTSRLNPHFLFNSLNTISALIHSSPDKADDVLHKLSDILRYSVDQQNKWVPLEHELAVCETYLTVEKARFTDNLNISWQIASSVDMRQLKVPPLLLQPLIENVMKHVKRRPIELLISVQAEQGKLIFKVKDNGKGFSEPSLNEQSKAGQGLNIVKQRVDIAGGELSLFNDTSEQGGAVCEITLPIHACV	failed
